Ref: ChEMBL document CHEMBL1961873

# system tested: Phosphatidylinositol 4,5-bisphosphate 3-kinase catalytic subunit delta isoform (Homo sapiens);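 further: values are mean percent inhibition of PI3K-delta, part of the GSK PKIS screen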
# run parameters: at 0.1 µM

test smiles	measure unit	inhibition
O=C(Nc1n[nH]c2cc(-c3ccccc3)ccc12)C1CC1	%	1.72
CCS(=O)(=O)c1ccc(OC)c(Nc2ncc(-c3ccccc3Cl)o2)c1	%	2.13
NC(=O)c1cc(-c2ccncc2)cc(-c2ccccc2)c1N	%	3.68
C[C@@H](Oc1cc(-n2cnc3ccc(OC4CCN(C)CC4)cc32)sc1C(N)=O)c1ccccc1Cl	%	9.45
O=C1NC(=O)C(c2cccc(Cl)c2)=C1Nc1ccc(Cl)c(C(=O)O)c1	%	1.72
Fc1ccc(-c2ncn(CCCN3CCOCC3)c2-c2ccncc2)cc1	%	1.59
C[C@@H](Oc1cc(-n2cnc3ccc(OCC4CCN(C)CC4)cc32)sc1C(N)=O)c1ccccc1Cl	%	15.6
Clc1ccc(CNc2nccc(-c3cnn4ncccc34)n2)cc1	%	-0.61
CS(=O)(=O)CCNCc1cc(-c2cc3c(Nc4ccc(OCc5cccc(F)c5)c(Cl)c4)ncnc3s2)cs1	%	0.67
COc1ccc2ncn(-c3cc(O[C@H](C)c4ccccc4Cl)c(C(N)=O)s3)c2c1	%	1.95
CCc1cccc(CC)c1/C=C/c1cncc(C(=O)NC)c1	%	4.84
